# experimental_details: Viscosity measurement (RHEOSENSE MicroVisc viscometer)
# Type: physicochemical
# test_conditions: 298K, atmospheric pressure
measured_attribute: Viscosity
Number first, unit second.

Solved entries:
CCCC[n+]1ccn2ccccc21.[Br-] [IPC4, 1-Butylimidazo[1,2-a] pyridinium bromide]    4.14 mPa
CCCCCCCCCC[n+]1ccn2ccccc21.[Br-] [IPC10, 1-Decylimidazo[1,2-a] pyridinium bromide]    27.20 mPa
CCCCCCCC[n+]1ccn2ccccc21.[Br-] [IPC8, 1-Octylimidazo[1,2-a] pyridinium bromide]    25.21 mPa
CCCCCCCCCCCC[n+]1ccn2ccccc21.[Br-] [IPC12]    28.60 mPa

Let's switch to this molecule now.
Prompt: Given the molecule CCCCCC[n+]1ccn2ccccc21.[Br-] [IPC6, 1-Hexylimidazo[1,2-a] pyridinium bromide] , write its reported Viscosity.
Completion: 14.7 mPa

====

# System: C. auris
# experimental_details: Checkerboard microdilution assay of ionic liquids with amphotericin B, with varied ratio isobolograms
# Format: cell-based, Candida auris
# test_conditions: alone
Collected Average MIC values of individual compounds values appear next to each entry.
Expressed in µg/mL, but write only the number.

CCCCCC[n+]1ccn2ccccc21.[Br-] [IPC6, 1-Hexylimidazo[1,2-a] pyridinium bromide]    39.06
C[C@@H]1[C@H](O)[C@@H](C)/C=C/C=C/C=C/C=C/C=C/C=C/C=C/[C@H](O[C@@H]2O[C@H](C)[C@@H](O)[C@H](N)[C@@H]2O)C[C@@H]2O[C@](O)(C[C@@H](O)C[C@@H](O)[C@H](O)CC[C@@H](O)C[C@@H](O)CC(=O)O[C@H]1C)C[C@H](O)[C@H]2C(=O)O    2.0
CCCC[n+]1ccn2ccccc21.[Br-] [IPC4, 1-Butylimidazo[1,2-a] pyridinium bromide]    78.12

Prompt: Name the recorded Average MIC values of individual compounds of the compound listed here: CCCCCCCC[n+]1ccn2ccccc21.[Br-] [IPC8, 1-Octylimidazo[1,2-a] pyridinium bromide]
Completion: 4.88

Prompt: Answer with the recorded Average MIC values of individual compounds for the compound listed here: CCCCCCCCCCCC[n+]1ccn2ccccc21.[Br-]
Completion: 312.5

Prompt: Report Average MIC values of individual compounds for CCCCCCCCCC[n+]1ccn2ccccc21.[Br-] [IPC10, 1-Decylimidazo[1,2-a] pyridinium bromide]
Completion: 78.12

====

# Tested on: C. auris
# experimental_details: Antifungal susceptibility by broth microdilution (MIC) and SDA plating (MFC)
# Type: cell-based, Candida auris
# test_conditions: compound alone; concentration giving 100% inhibition; C. auris (2921)
Average MIC value values, listed per item
Express the reported value numerically, then name its unit.

Examples with their reported Average MIC value follow.
C[C@@H]1[C@H](O)[C@@H](C)/C=C/C=C/C=C/C=C/C=C/C=C/C=C/[C@H](O[C@@H]2O[C@H](C)[C@@H](O)[C@H](N)[C@@H]2O)C[C@@H]2O[C@](O)(C[C@@H](O)C[C@@H](O)[C@H](O)CC[C@@H](O)C[C@@H](O)CC(=O)O[C@H]1C)C[C@H](O)[C@H]2C(=O)O [Amphotericin B]    2.0 µg/mL
CCCCCCCC[n+]1ccn2ccccc21.[Br-] [IPC8, 1-Octylimidazo[1,2-a] pyridinium bromide]    4.88 µg/mL
CCCC[n+]1ccn2ccccc21.[Br-] [IPC4, 1-Butylimidazo[1,2-a] pyridinium bromide]    78.12 µg/mL

Prompt: Give the reported Average MIC value for this compound. CCCCCC[n+]1ccn2ccccc21.[Br-] [IPC6, 1-Hexylimidazo[1,2-a] pyridinium bromide]
Completion: 39.06 µg/mL

Prompt: Please look at this compound and report its Average MIC value: CCCCCCCCCC[n+]1ccn2ccccc21.[Br-] [IPC10, 1-Decylimidazo[1,2-a] pyridinium bromide]
Completion: 78.12 µg/mL

Prompt: Quick one: give measured Average MIC value for CCCCCCCCCCCC[n+]1ccn2ccccc21.[Br-] [IPC12]
Completion: 312.5 µg/mL
